system: SMN2 minigene mRNA (SMN2-A minigene) in HEK293H cells; test: SMN2 minigene mRNA splicing RT-qPCR assay in cultured cells; type: cell-based, human; settings: Homo sapiens, HEK293-H; concentration increasing full length SMN2 mRNA 1.5-fold relative to vehicle-treated cells; HEK293H cells with SMN2-A minigene, 24 hours, 7-point concentration data; read-out: EC1.5x for production of full length SMN2 mRNA
measurementType: EC (1.5-fold increase)

Reference set (5 entries):
>  <compoundSmiles>
Cc1cn2nc(-c3cc(=O)n4nc(C5CCNCC5)ccc4n3)cc2c(C)n1

>  <testValue>
< 0.1 µM

$$$$
>  <compoundSmiles>
COc1ccc(-c2ccc3nc(N4CC[C@H](N(C)C)C4)cc(=O)n3c2)cc1F

>  <testValue>
1 to 3 µM

$$$$
>  <compoundSmiles>
COc1ccc(-c2cc(=O)n3cc(N4CCC(CN(C)C)CC4)ccc3n2)cc1F

>  <testValue>
0.3 to 1 µM

$$$$
>  <compoundSmiles>
Cc1cn2cc(-c3cc(=O)n4cc(N5CCNCC5)ccc4n3)cc(CO)c2n1

>  <testValue>
< 0.1 µM

$$$$
>  <compoundSmiles>
Cc1cn2cc(-c3cc(=O)n4cc(C5CCN(C(C)C)CC5)ncc4n3)cc(Cl)c2n1

>  <testValue>
< 0.1 µM

$$$$

INPUT: # query: EC (1.5-fold increase) of entry CCN(CC)C1CCN(c2cc(C)c3nc(-c4ccc(OC)c(OC)c4)cc(=O)n3c2)CC1
OUTPUT: 0.1 to 0.3 µM

INPUT: EC (1.5-fold increase) for CN1CCN(c2cn3c(=O)cc(-c4ccc5nn(C)cc5c4)nc3cn2)CC1 ?
OUTPUT: 0.1 to 0.3 µM

INPUT: Field request: EC (1.5-fold increase) | item: Cc1cn2cc(-c3cc(=O)n4cc(N5CCC(N(C)C)CC5)ccc4n3)ccc2n1
OUTPUT: < 0.1 µM

INPUT: Quick one: EC (1.5-fold increase) for CCN1CCC(c2ccc3nc(-c4cc5c(C)nc(C)cn5n4)cc(=O)n3c2)CC1 ?
OUTPUT: < 0.1 µM

INPUT: For CCN1CCN(c2ccc3nc(-c4cc(C)c5nc(C)cn5c4)cc(=O)n3c2)CC1 , what is its reported EC (1.5-fold increase)?
OUTPUT: < 0.1 µM

INPUT: I'd like to know its EC (1.5-fold increase). The compound in question is Cc1cn2cc(-c3cc(=O)n4cc(C5CCN(C)CC5)ccc4n3)cc(Cl)c2n1
OUTPUT: < 0.1 µM

---

measurementType: melting point

Recorded results for 3 compounds are shown here.
>  <compound>
Cc1cn2cc(-c3cc(=O)n4cc(N5CCN[C@@H](C)C5)ccc4n3)nc2c(C)n1 [Compound 119]

>  <melting point>
202 to 208 °C

$$$$
>  <compound>
C[C@@H]1CN(c2cc(F)c3nc(-c4ccc(N(C)C)cc4)cc(=O)n3c2)CCN1 [Compound 50]

>  <melting point>
205 to 207 °C

$$$$
>  <compound>
CCN(CC)C1CCN(c2ccc3nc(-c4cc5c(C)nc(C)cn5n4)cc(=O)n3c2)CC1 [Compound 451]

>  <melting point>
232 to 235 °C

$$$$

Moving on to another compound below.
INPUT: State the recorded melting point for this entry: O=c1cc(-c2cc(F)cc(Cl)c2)nc2ccc(N3CCNCC3)cn12 [Compound 190]
OUTPUT: 180 to 184 °C

---

tested on: SMN2 minigene mRNA (SMN2-A minigene) in HEK293H cells; assay: SMN2 minigene mRNA splicing RT-qPCR assay in cultured cells; type: cell-based, human; settings: Homo sapiens, HEK293-H; concentration increasing full length SMN2 mRNA 1.5-fold relative to vehicle-treated cells; HEK293H cells with SMN2-A minigene, 24 hours, 7-point concentration data; read-out: EC1.5x for production of full length SMN2 mRNA
Below, each entry is listed alongside its reported EC (1.5-fold increase).

Look over these answered cases.
>  <compound>
Cc1nc2ccc(-c3cc(=O)n4cc(N5CCN(C)CC5)ccc4n3)cc2o1

>  <systemUnderTest>
SMN2 minigene mRNA (SMN2-A minigene) in HEK293H cells

>  <EC (1.5-fold increase)>
< 0.1 µM

$$$$
>  <compound>
Cc1nc2ccc(-c3cc(=O)n4cc(N5CCC(N)C5)ccc4n3)cc2s1 (stereo not drawn)

>  <systemUnderTest>
SMN2 minigene mRNA (SMN2-A minigene) in HEK293H cells

>  <EC (1.5-fold increase)>
< 0.1 µM

$$$$
>  <compound>
Cc1cn2cc(-c3cc(=O)n4cc(N5CCN(C6CC6)CC5)ccc4n3)cc(F)c2n1

>  <systemUnderTest>
SMN2 minigene mRNA (SMN2-A minigene) in HEK293H cells

>  <EC (1.5-fold increase)>
< 0.1 µM

$$$$
>  <compound>
Cc1cn2nc(-c3cc(=O)n4cc(C5=C[C@H](C)N[C@@H](C)C5)ccc4n3)cc2c(C)n1

>  <systemUnderTest>
SMN2 minigene mRNA (SMN2-A minigene) in HEK293H cells

>  <EC (1.5-fold increase)>
< 0.1 µM

$$$$
>  <compound>
COc1ccc(-c2cc(=O)n3cc(N4C[C@H]5CCCN[C@H]5C4)ccc3n2)cc1F

>  <systemUnderTest>
SMN2 minigene mRNA (SMN2-A minigene) in HEK293H cells

>  <EC (1.5-fold increase)>
1 to 3 µM

$$$$

INPUT: Requested field: EC (1.5-fold increase). Item: Cc1cn2cc(-c3cc(=O)n4cc(N5CCCN(C)CC5)ccc4n3)ccc2n1
OUTPUT: < 0.1 µM

INPUT: What EC (1.5-fold increase) value was documented for this compound, Cc1cn2nc(-c3cc(=O)n4cc(N5CCN[C@H](C)C5)ccc4n3)cc2cn1 ?
OUTPUT: < 0.1 µM

INPUT: Recorded EC (1.5-fold increase) for Cc1cn2nc(-c3cc(=O)n4cc(N5CCN(C)CC5)ccc4n3)cc2cn1 , please?
OUTPUT: < 0.1 µM

INPUT: If you can, please state the reported EC (1.5-fold increase) value of COc1ccc(-c2cc(=O)n3cc(N4CCC(CN(C)C)CC4)ccc3n2)cc1OC .
OUTPUT: 0.3 to 1 µM

INPUT: What value of EC (1.5-fold increase) has been recorded for this entry: Cc1cn2cc(-c3cc(=O)n4nc(C5CCNCC5)ccc4n3)cc(C)c2n1
OUTPUT: < 0.1 µM

INPUT: I am curious: what EC (1.5-fold increase) value has been reported for CCN1C[C@@H]2CN(c3ccc4nc(-c5ccc(OC)c(F)c5)cc(=O)n4c3)C[C@@H]2C1 ?
OUTPUT: 0.1 to 0.3 µM

INPUT: Please give the measured EC (1.5-fold increase) for this compound: COc1ccc(-c2cc(=O)n3cc(N4C[C@H]5CN(C)C[C@H]5C4)ccc3n2)cc1F
OUTPUT: 0.1 to 0.3 µM

INPUT: Endpoint output: EC (1.5-fold increase) of C[C@H]1CN(c2ccc3nc(-c4ccc(O)c(OC(F)F)c4)cc(=O)n3c2)CCN1 . Value?
OUTPUT: 0.3 to 1 µM

INPUT: # EC (1.5-fold increase) lookup, item CCc1nc(C)cn2nc(-c3cc(=O)n4cc(NCCN(C)C)ccc4n3)cc12
OUTPUT: 0.3 to 1 µM

INPUT: Reported EC (1.5-fold increase), compound N#Cc1cc(F)cc(-c2cc(=O)n3cc(N4CCNCC4)ccc3n2)c1 : ____
OUTPUT: 0.3 to 1 µM

---

Test system: SMN2 minigene mRNA (SMN2-A minigene) in HEK293H cells
Experiment: SMN2 minigene mRNA splicing RT-qPCR assay in cultured cells
Format: cell-based, human
Details: Homo sapiens, HEK293-H; concentration increasing full length SMN2 mRNA 1.5-fold relative to vehicle-treated cells; HEK293H cells with SMN2-A minigene, 24 hours, 7-point concentration data; read-out: EC1.5x for production of full length SMN2 mRNA
Description: The reverse transcription-quantitative PCR-based (RT-qPCR) assay is used to quantify the level of the full length SMN2 minigene mRNA containing SMN2 exon 7 in a HEK293H cell line stably transfected with said minigene and treated with a test compound. Protocol. […] The increase of SMN2 minigene FL mRNA relative to that in cells treated with vehicle control is determined from real-time PCR data using a modified ΔΔCt method (as described in Livak and Schmittgen, Methods, 2001, 25:402-8). […]
measurementType: EC (1.5-fold increase)

>  <molecule>
Cc1nc2cc(-c3cc(=O)n4cc(N5CCNCC5)ccc4n3)ccc2s1 [Compound 136]

>  <systemUnderTest>
SMN2 minigene mRNA (SMN2-A minigene) in HEK293H cells

>  <testValue>
< 0.1 µM

$$$$
>  <molecule>
COc1ccc(-c2cc(=O)n3cc(N4CCC(N(C)C)CC4)ccc3n2)cc1F [Compound 185]

>  <systemUnderTest>
SMN2 minigene mRNA (SMN2-A minigene) in HEK293H cells

>  <testValue>
< 0.1 µM

$$$$

INPUT: Would you mind telling me what EC (1.5-fold increase) value was observed for CCc1cc(-c2cc(=O)n3cc(C4CCN(CCO)CC4)ccc3n2)cn2cc(C)nc12 [Compound 699] ?
OUTPUT: < 0.1 µM
